Assign pIC50 to each entry below.
- EXPERIMENTAL SYSTEM: full-length human AR (Homo sapiens, UniProt P10275)
- Construct: expression vector encoding full-length human AR
- METHOD SUMMARY: AR antagonism, reporter gene assay in hAR/HEK293 cells
- CONDITION NOTES: HEK293 cells stably transfected with full-length human AR and androgen responsive luciferase reporter; co-treated with submaximal testosterone (usually 0.45 nM); 1% DMSO; triplicates
By convention, pIC50 is the negative base-10 log of a molar concentration.

// pIC50 lookup, compound = CN(c1ccc(C#N)c(C(F)(F)F)c1)C1C=C(c2cncs2)CCC1 (single isomer, unassigned) [Ex. 232 enantiomer 1] , result: 7.48

// pIC50 lookup, compound = CCN(c1ccc(C#N)c(C(F)(F)F)c1)C1CC=C(c2cncn2C2CC2)C1 (racemic) , result: 7.24

// pIC50 lookup, compound = CCN(c1ccc(C#N)c(C(F)(F)F)c1)C1CC=C(c2cncn2C(C)C)C1 (single isomer, unassigned) [Ex. 51 enantiomer 2] , result: 7.77

// pIC50 lookup, compound = CCN(c1ccc(C#N)c(C(F)(F)F)c1)C1C=C(n2cncn2)CCC1 (stereo not shown) , result: 7.64

----------
- EXPERIMENTAL SYSTEM: 17,20 lyase (CYP17) (Homo sapiens, UniProt P05093)
- Construct: endogenous in cells; host or cells: H295R human adrenocortical carcinoma cells
- METHOD SUMMARY: 17,20 lyase (CYP17) inhibition, acetic acid release assay (AARA) on H295R cells
- Format: cell-based
- CONDITION NOTES: human H295R adrenocortical carcinoma cells; overnight (16-19 h) with 17α-[21-3H]hydroxypregnenolone; 3H-acetic acid release; 1% DMSO; quadruplicates; read-out: CYP17 inhibition IC50
- Method: The ability of the test compounds to inhibit 17,20 lyase catalysed conversion of 17α-hydroxypregnenolone to dehydroepiandrosterone and acetic acid was measured by acetic acid release assay (AARA) on human H295R adrenocortical carcinoma cell line (Grigoryev, D. N. et al., Analytical Biochemistry 1999; 267:319-330). […] The final DMSO concentration was 1%. […] Radioactivity was measured using a Microbeta scintillation counter (1450 MicroBeta Trilux, Wallac). […]
Assign pIC50 to each entry below.
By convention, pIC50 is the negative base-10 log of a molar concentration.

The value of pIC50 recorded for COc1cc(N(C)C2C=C(n3ccnc3)CCC2(C)C)ccc1C#N (centres unmarked) when tested on 17,20 lyase (CYP17) (Homo sapiens, UniProt P05093) reads 7.48

The value of pIC50 recorded for CN(c1ccc(C#N)c(C(F)(F)F)c1)C1C=C(c2cncn2CCOCc2ccccc2)CCC1(C)C (centres unmarked) when tested on 17,20 lyase (CYP17) (Homo sapiens, UniProt P05093) reads 8.00

The value of pIC50 recorded for CN(c1ccc(C#N)c(C(F)(F)F)c1)C1C=C(n2ccnc2)CCC1(C)C (racemic) [Ex. 130 racemate] when tested on 17,20 lyase (CYP17) (Homo sapiens, UniProt P05093) reads 7.85

The value of pIC50 recorded for CCN(c1ccc(C#N)c(C(F)(F)F)c1)C1CCC=C(c2c[nH]cn2)C1(C)C (centres unmarked) when tested on 17,20 lyase (CYP17) (Homo sapiens, UniProt P05093) reads 7.44

The value of pIC50 recorded for CN(c1ccc(C#N)c(C(F)(F)F)c1)C1C=C(n2ccnc2)CCC1 (single isomer, unassigned) [Ex. 6 enantiomer 1] when tested on 17,20 lyase (CYP17) (Homo sapiens, UniProt P05093) reads 7.13

// data source = patent US9890139B2
